Measurement protocol: protein stability index of a GFP-peptide fusion (yeast GPS) (PSI 1-4); higher = more stable; sorted into four equal gates, so the index is relative within each strain
Experimental parameters: ubr1∆
// classify(record): look up protein stability index in ranges bottom end = under 2, midrange = from 2 up to 3, top end = 3 and over

Reference set, count: 3
{"columns": ["Sequence", "Classification"],
 "data": [
  ["DNIDYAPMRLATAALEI [YJL039C/NUP192]", "midrange"],
  ["LTHPKYLNSRIIPTTLE [YML103C/NUP188]", "midrange"],
  ["YDSRSGTHNMYKEIRDV [RPL20A]", "top end"]
]}

Enquiry: Which protein stability index band matches AGFDPRDDEPKLYQTEP [PRE6] ?
Return: top end

Enquiry: Form field 'band' for FERIMILDPQVTRFTTW [YJL039C/NUP192]
Return: bottom end

* * *

The following sequences are shown together with reported protein stability index values.
Measurement protocol: protein stability index of a GFP-peptide fusion (yeast GPS) (PSI 1-4); higher = more stable; sorted into four equal gates, so the index is relative within each strain
Experimental parameters: pdr5∆
// no unit, no text: just the number

{"columns": ["Sequence", "Reported value"],
 "data": [
  ["YSRISKLKQLLDESSEQ [YIL149C/MLP2]", 2.67],
  ["SVMDPITSKRKAELLLK [DIS3]", 2.76],
  ["ELYEVDVLKVNTLVRPN [RPL25]", 2.67],
  ["IAKLSVIPIRRGYWGTN [RPS2]", 1.67],
  ["VVLSFSGLNADSRILIE [PRE6]", 3.26],
  ["KVSDPYVPTRNTFNYDV [RPN4]", 2.39],
  ["CDILVATPGRLIDSLEN [PRP28]", 3.24],
  ["SSLALVFALHKYKPTPL [SMC4]", 2.18],
  ["RSATGAKRAQFRKKRKF [RPS8A]", 2.5],
  ["WSKESNYDCKVISIVGG [PRP28]", 3.06]
]}

SEDDSESGKVFIGRLPI [RPB2] yielded protein stability index of 3.19

protein stability index measured on LSDYEVLKFLTDLEKKH [RPC17] = 3.23

The sequence identified as CIECQPKAMTDTDNECV [HRT1] registered its protein stability index at 3.25

Notebook: DAGKLVYVTGGRNLGRI [RPS4A] , protein stability index read as 1.99

* * *

Measurement protocol: protein stability index of a GFP-peptide fusion (yeast GPS) (PSI 1-4); higher = more stable; sorted into four equal gates, so the index is relative within each strain
Experimental parameters: ubr1∆
Note to self: values exactly at 3 are TRUE. So protein stability index at or above 3 is TRUE, below is FALSE.

Enquiry: Hi team, for EIRRFQKSTELLIRKLP [HHT1] , is the recorded protein stability index at or above 3?
Return: FALSE

Enquiry: Could you verify whether the entry EVSMNSIFAMGLCGAGT [RPN1] shows protein stability index of no less than 3?
Return: FALSE

Enquiry: Does SKLLQTTLKLSPSPILL [NUT1] have a reported protein stability index of at least 3?
Return: FALSE

Enquiry: # check: protein stability index of EDHVEDHRKRKKSKIQL [LIN1] is greater than or equal to 3
Return: TRUE

Enquiry: // inclusive: protein stability index at least 3? input: KKPLSMALNKVLITDHI [CDC53]
Return: FALSE

* * *

Measurement protocol: protein stability index of a GFP-peptide fusion (yeast GPS) (PSI 1-4); higher = more stable; sorted into four equal gates, so the index is relative within each strain
Experimental parameters: doa10∆
Recorded endpoint: protein stability index
Answer field: number only, no words.

{"columns": ["Sequence", "protein stability index"],
 "data": [
  ["LFQVEYSLEAIKLGSTA [PUP2]", 1.61],
  ["AKKTSTSVDGKKRSKVR [HTB2]", 3.05],
  ["DSVLQLASFEKTTDHLF [RPO31]", 2.63],
  ["SYPILNESSTFLKLVLS [SIN4]", 1.97],
  ["DIWRVAGKFELLDRILP [SNF2]", 2.37],
  ["AKKHKLNAITLDGDRAD [SMC3]", 2.37]
]}

protein stability index for EIHPITFPPEVLARISP [RRP43] is 2.05

The sequence listed as DAFRVHICGICGLMTVI [RPB2] has a reported protein stability index of 1.33

protein stability index reported for this sequence LQRPTATDEESVRLQRF [CSN12] : 2.75

* * *

Measurement protocol: protein stability index of a GFP-peptide fusion (yeast GPS) (PSI 1-4); higher = more stable; sorted into four equal gates, so the index is relative within each strain
Experimental parameters: pdr5∆
The threshold is inclusive: protein stability index of exactly 3 counts as MET; values below receive NOT MET.

{"columns": ["Sequence", "Classification"],
 "data": [
  ["QVGLNFELSFTGAPPYY [YMR129W/POM152]", "NOT MET"],
  ["EAVDDVFQAKMMDMLKQ [RPN11]", "NOT MET"],
  ["EVCAKMPNIELYLKVIP [SSN2]", "NOT MET"],
  ["SKKRKLVADGVFYAELN [RPS3]", "NOT MET"],
  ["IQAGKFDNKSTSEEQEA [SNF2]", "MET"]
]}

Enquiry: Please check the record QWSATWIAMRREKRDRT [PRP8] and state if its protein stability index is at or above 3.
Return: NOT MET

* * *

Measurement protocol: protein stability index of a GFP-peptide fusion (yeast GPS) (PSI 1-4); higher = more stable; sorted into four equal gates, so the index is relative within each strain
Experimental parameters: ubr1∆
Response key: yes means protein stability index >= 3; no means protein stability index < 3.

These recorded examples may help you get a feel for the data.
{"columns": ["Sequence", "Classification"],
 "data": [
  ["NGKTRTLENTLKAAFVA [RPS2]", "no"],
  ["YVLRNVLRIPEEYLDAN [MTW1]", "no"],
  ["TFENINSLFYLKWSACT [IRR1]", "no"],
  ["VEAGMIALRNGQSSVKH [RPT5]", "no"]
]}

Enquiry: Would you say AKRDYIISRLNADFQKP [FAS1] shows protein stability index at minimum 3?
Return: yes

* * *

Measurement protocol: protein stability index of a GFP-peptide fusion (yeast GPS) (PSI 1-4); higher = more stable; sorted into four equal gates, so the index is relative within each strain
Experimental parameters: doa10∆
Recorded endpoint: protein stability index

Kindly note the recorded protein stability index for VLCNSNISKSRAKPVTN [RRP6] , which is 2.3

For record HLRSNILKDLIYRGVLN [SMC1] the listed protein stability index is 1.74

// field: protein stability index; key: YNDSATSGEAAALGMGL [RPN2] ; value = 2.32

Memo: GTSLTIQHIAAAMVPFI [CDC53] , reported protein stability index: 2.75

// EKSTQLQQKHELDTASR [YGR119C/NUP57] : protein stability index value = 2.95

# protein stability index (sequence: RQGLIHQGSGGSVMSAS [SMC3] ) is 2.75

protein stability index for SEKGFSKEQIHGSIIIL [YCS4] is 2.71

Kindly note the recorded protein stability index for REEAIGFIRGSNKFAEV [SMC3] , which is 3.01

Quick note, protein stability index for AKRDYIISRLNADFQKP [FAS1] landed at 3.32

Value of protein stability index reported for the sequence QKVFVRSRNGGATKIVR [DIS3] is 2.33

The reported value for ETSSFGSMFSGDNTSDV [RRI1] in terms of protein stability index is 3.48

protein stability index reading for EKDLEHWLQLAKGVYRP [POP1] : 2.64

# sequence MDIILGIRVQDSVILAS [PRE1] ; its protein stability index = 1.47

// protein stability index value for LTESQTETYISDLVNQG [RPN5] : 3.18

The sequence identified as GVFDPASYAKYLIDHIK [RPL22A] registered its protein stability index at 2.73

Noted for MKNENANPKKLALMTAH [CDC53] : its protein stability index reads 2.12

According to the records, this sequence GCDENDSTVNKSITLKG [YDL088C/ASM4] displays protein stability index of 3.1

* * *

Readings of protein stability index for the listed sequences
Measurement protocol: protein stability index of a GFP-peptide fusion (yeast GPS) (PSI 1-4); higher = more stable; sorted into four equal gates, so the index is relative within each strain
Experimental parameters: doa10∆

Before answering, review these 8 worked examples.
{"columns": ["Sequence", "Reported value"],
 "data": [
  ["DVAIENNTLSRYADAGN [RRP43]", 3.36],
  ["TKLKNAVQNESVSSPIE [QCR2]", 3.05],
  ["INTHIETLAYNSLKETL [SNF2]", 2.48],
  ["VLVYDDKLEKVTHDCYR [RPC34]", 2.57],
  ["SSFSKKTLTEEVTKSSH [YIL149C/MLP2]", 2.69],
  ["HVPEKKSTDLTPKGNES [MTR3]", 2.97],
  ["LPVKWETTTQFKATHIL [FAS1]", 2.52],
  ["SKQIFTHPKDTFYITRE [ARP9]", 3.11]
]}

Given item ITGGIIEETSAAIKDLD [RRP43] , the value recorded as its protein stability index is 3.13

Per the record, PEYFESPLQSSKSKQSF [YMR129W/POM152] has protein stability index of 2.78

Summary for this sequence, CINKWIKTRDACPLDNQ [HRT1] : protein stability index is 3.16

Per the record, GNIKDLPENIILTSLMR [CSN9] has protein stability index of 2.69

Per the record, LEEDSKKVNGTSYKKWS [PRP8] has protein stability index of 3.3

protein stability index reading for NELERNRKIYQFTLYDR [SMC3] : 1.5

Noted for EVCAKMPNIELYLKVIP [SSN2] : its protein stability index reads 2.71

The value of protein stability index measured for the sequence GIFIKILNDSLIYHLKD [IRR1] turned out to be 1.54

Lab note: RNQRKGAGSIFTSHTRL [RPL2A] gave protein stability index of 2.03

The recorded protein stability index for entry ELSVVLSGIIQDIYYLA [RRI2] equals 2.32

Per the record, SSLRNQELLNAETLCFT [RPN3] has protein stability index of 2.89

// WESLAKKQNLSSHQRVF [SWP82] : protein stability index value = 2.77

Note to self: protein stability index recorded for DFLGVASTGSGKTLAFV [PRP28] was 3.42

Please fill in: protein stability index reported for WQYYYYTLTEEGVEYLR [RPS10A] = 2.58

sequence IPYAAKLLFQELLSMNI [RET1] , protein stability index observed: 1.55

Form field protein stability index, entry SSVNEDTFLPPPPPPPS [PRP8] : 2.73

So for FLQSVDITGIRDVSDDV [GRR1] , the logged protein stability index turned out to be 1.74

Record summary for SKRGNDKKHFNNKNKRV [RPC53] : reported protein stability index = 3.17

The reported value for VNADTVGKTVKQLIMES [NSL1] in terms of protein stability index is 3.22

Measured protein stability index, VSNNVLRRLEILVPDLY [ECM29] : 2.31

get_value(item= AHEIIKREEKAMTIYWD [CDC53] , readout=protein stability index) returns 2.03

Notebook: TPNFDDVLKENNDADKG [RIP1] , protein stability index read as 1.51

protein stability index measured on DVSVKMGNTKVHCRISC [RRP45] = 2.21

Measured protein stability index, NFNSSAPIADDNHSGDA [DSN1] : 1.92

protein stability index for GNSGVVRATFRNNLPAK [RPL33A] is 2.88

Values from the supplement of paper PMC9732359
